- measured.on: T1, sRSM, RECQ4(358-388) (Homo sapiens, UniProt O94761)
- T1 chain: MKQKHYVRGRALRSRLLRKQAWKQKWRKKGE
- measurement.notes: stopped-flow/CD/NMR/light scattering global fit; Kd,1: initial 1:1 complex; FA: 25 mM KPO4 pH 6.5, 70 mM KCl (or 500 mM NaCl), 25 C; ITC: same low-salt buffer, 30 C; NMR dsDNA: 50 mM NaPO4 pH 6.0, 150 mM NaCl, 298 K; NMR G4: 25 mM KPO4
- conditions.used: intramolecular parallel G4
measurement.label: pKd
To interpret pKd, take it as minus log10 of a concentration measured in moles per litre.

[in] Name the recorded pKd for TTGGGTGGGTGGGTGGGT (structured_DNA) [T95-2T parallel G4] .
[out] 5.51
